Just for reference, ChEMBL document CHEMBL1137944 is where these values come from.

Recorded below: IC50, system UniProtKB P05177.
Sequence (P05177 whole entry): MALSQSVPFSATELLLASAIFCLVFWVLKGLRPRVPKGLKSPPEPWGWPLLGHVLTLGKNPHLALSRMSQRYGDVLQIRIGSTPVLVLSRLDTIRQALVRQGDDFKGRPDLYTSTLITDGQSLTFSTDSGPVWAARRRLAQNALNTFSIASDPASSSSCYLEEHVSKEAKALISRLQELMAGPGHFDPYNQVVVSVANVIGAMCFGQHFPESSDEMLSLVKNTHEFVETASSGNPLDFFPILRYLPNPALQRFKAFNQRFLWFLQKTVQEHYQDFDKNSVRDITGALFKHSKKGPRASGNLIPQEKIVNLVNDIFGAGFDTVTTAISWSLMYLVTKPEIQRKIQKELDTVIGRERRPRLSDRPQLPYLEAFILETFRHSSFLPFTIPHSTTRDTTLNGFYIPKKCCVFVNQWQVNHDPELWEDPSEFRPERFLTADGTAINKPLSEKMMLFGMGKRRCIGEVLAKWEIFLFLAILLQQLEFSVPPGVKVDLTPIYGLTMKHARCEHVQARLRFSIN
Endpoint: IC50 (nM)

# Molecular string, Unit tag, Value relation sign, Numeric value
data = [
    ("c1ccc(COc2ccc(-n3ccnc3)cc2)nc1", "nM", "=", 120),
    ("c1cc(CCCOc2ccc(-n3ccnc3)cc2)ccn1", "nM", "<", 46),
    ("c1ccc(CCCOc2ccc(-n3ccnc3)cc2)nc1", "nM", "<", 46),
    ("CCOC(=O)N1CCN(CCOc2ccc(-n3ccnc3)cc2)CC1", "nM", "=", 2240),
    ("c1cn(-c2ccc(OCCN3CCOCC3)cc2)cn1", "nM", "=", 1480),
    ("c1cncc(CCCOc2ccc(-n3ccnc3)cc2)c1", "nM", "<", 46),
]
